molecular target: CYP2D6 (Homo sapiens, UniProt P10635); assay: CYP450 inhibition, CYP2D6; assay type: biochemical; conditions: recombinant CYP2D6 (Supersomes, Gentest), pH 7.4
Sequence (P10635 whole entry): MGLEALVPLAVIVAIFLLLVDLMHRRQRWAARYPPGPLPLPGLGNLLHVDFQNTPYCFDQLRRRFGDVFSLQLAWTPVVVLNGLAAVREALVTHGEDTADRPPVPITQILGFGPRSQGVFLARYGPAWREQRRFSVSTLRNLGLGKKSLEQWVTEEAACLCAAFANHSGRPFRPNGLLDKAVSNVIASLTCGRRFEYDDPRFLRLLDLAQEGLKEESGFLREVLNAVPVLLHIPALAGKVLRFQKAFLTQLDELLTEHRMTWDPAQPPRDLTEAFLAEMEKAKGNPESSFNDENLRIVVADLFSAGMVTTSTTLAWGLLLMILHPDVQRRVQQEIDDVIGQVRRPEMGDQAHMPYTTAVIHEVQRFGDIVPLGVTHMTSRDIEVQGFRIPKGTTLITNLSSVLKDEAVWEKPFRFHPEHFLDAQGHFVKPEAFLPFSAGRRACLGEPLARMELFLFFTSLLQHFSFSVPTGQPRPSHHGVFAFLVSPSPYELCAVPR
Observed property: inhibition at 30 min, 1 µM

>>> readout_value("COc1cc(Sc2c(-n3ccnc3)[nH]c3ccccc23)cc(OC)c1OC")
"< 50%"
>>> readout_value("COc1cc(Sc2c(-c3ccncc3)[nH]c3ccccc23)cc(OC)c1OC")
"< 50%"

Query string: Name the recorded inhibition at 30 min, 1 µM of the item `COc1cc(Sc2c(-c3cccnc3)[nH]c3ccccc23)cc(OC)c1OC` in your answer.
Result string: < 50%

Query string: Given the compound `COc1cc(Sc2c(-n3cncn3)[nH]c3ccccc23)cc(OC)c1OC` , write its reported inhibition at 30 min, 1 µM.
Result string: < 50%

* * *

assay: Caco-2 cell permeability; assay type: in vitro ADME; details: human
Observed property: Papp A→B at 2 h, 10 μM (×10⁻⁶ cm/s)
Answer with a number only, understood to be in ×10⁻⁶ cm/s.

Query string: Please indicate Papp A→B at 2 h, 10 μM recorded for CN/C(=N/CCSCc1nc[nH]c1C)NC#N [cimetidine]
Result string: 0.11
